Source of measurements: ChEMBL document CHEMBL3400086

# Tested on: Liver microsome
# experimentNotes: Intrinsic clearance in Wistar rat liver microsomes measured per gram of tissue at 2.5 uM
# Type: ADME
Exam item: assign Y to entries whose CLH is below 1 mL/min/g and N to entries at or above 1 mL/min/g. Note that a value of exactly 1 mL/min/g receives N.

# smilesEntry, targetSystem, classAssignment
rows = [
    ("N#Cc1cc(F)cc(S(=O)(=O)c2sc3ncc(N)cc3c2-c2ccc(F)cc2)c1", "Liver microsome", "N"),
    ("N#Cc1cccc(S(=O)(=O)c2sc3ncc(N)cc3c2-c2ccc(F)cc2)c1", "Liver microsome", "N"),
    ("N#Cc1cc(F)cc(S(=O)(=O)c2sc3ncccc3c2-c2cccc(F)c2)c1", "Liver microsome", "N"),
    ("N#Cc1cc(F)cc(S(=O)(=O)c2sc3ncc(N)cc3c2-c2ccncc2Cl)c1", "Liver microsome", "Y"),
    ("Nc1ccnc2sc(S(=O)(=O)c3ccc(Cl)cc3)c(-c3ccc(Cl)cc3)c12", "Liver microsome", "N"),
]

# input for lookup
Field: below-cutoff. Rule: recorded CLH strictly less than 1 mL/min/g. Subject: COc1ccnc2sc(S(=O)(=O)c3ccc(Cl)cc3)c(-c3ccc(Cl)cc3)c12
N

----------
Reported values of IC50 for individual entries
# targetSystem: Metabotropic glutamate receptor 5 (Rattus norvegicus, UniProt P31424)
# Sequence (P31424 whole entry): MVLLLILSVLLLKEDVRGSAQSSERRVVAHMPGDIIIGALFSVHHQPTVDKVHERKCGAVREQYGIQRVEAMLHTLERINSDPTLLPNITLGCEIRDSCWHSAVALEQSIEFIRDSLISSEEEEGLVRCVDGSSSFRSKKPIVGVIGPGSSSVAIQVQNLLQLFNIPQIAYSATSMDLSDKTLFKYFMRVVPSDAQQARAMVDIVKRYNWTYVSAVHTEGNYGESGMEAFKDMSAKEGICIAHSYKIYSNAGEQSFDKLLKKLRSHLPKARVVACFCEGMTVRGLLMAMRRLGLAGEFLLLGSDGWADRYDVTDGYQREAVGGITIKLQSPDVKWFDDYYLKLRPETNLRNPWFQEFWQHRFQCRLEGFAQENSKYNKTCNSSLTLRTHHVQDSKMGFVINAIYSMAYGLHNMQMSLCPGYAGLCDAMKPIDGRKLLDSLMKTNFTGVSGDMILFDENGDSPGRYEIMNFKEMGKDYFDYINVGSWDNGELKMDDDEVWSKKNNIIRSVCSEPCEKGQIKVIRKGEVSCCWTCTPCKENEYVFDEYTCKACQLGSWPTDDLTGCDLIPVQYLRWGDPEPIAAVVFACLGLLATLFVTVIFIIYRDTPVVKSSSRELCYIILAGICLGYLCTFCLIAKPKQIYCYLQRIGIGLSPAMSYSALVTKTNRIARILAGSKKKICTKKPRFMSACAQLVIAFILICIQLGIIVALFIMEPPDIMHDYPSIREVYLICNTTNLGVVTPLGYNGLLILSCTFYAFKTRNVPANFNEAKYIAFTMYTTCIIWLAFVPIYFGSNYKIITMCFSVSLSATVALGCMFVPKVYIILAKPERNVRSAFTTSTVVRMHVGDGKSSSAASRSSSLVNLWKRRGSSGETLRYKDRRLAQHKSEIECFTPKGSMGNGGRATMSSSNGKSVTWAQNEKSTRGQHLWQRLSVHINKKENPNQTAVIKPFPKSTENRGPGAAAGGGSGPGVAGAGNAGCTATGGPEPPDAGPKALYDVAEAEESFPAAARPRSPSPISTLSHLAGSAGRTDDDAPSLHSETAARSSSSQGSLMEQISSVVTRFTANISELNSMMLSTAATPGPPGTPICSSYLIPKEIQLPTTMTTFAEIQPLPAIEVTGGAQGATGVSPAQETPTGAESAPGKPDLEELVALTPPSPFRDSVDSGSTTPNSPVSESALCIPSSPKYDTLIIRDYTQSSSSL
# experimentNotes: Negative allosteric modulation of mGlu5 receptor in primary E17 rat embryo neuron assessed as ca2+ level by fluo-4/AM assay
All answers are understood in nM, so give the number only.

Look over these answered cases.
# smilesEntry, IC50, nM
rows = [
    ("N#Cc1cc(F)cc(S(=O)(=O)c2sc3ncccc3c2-c2ccc(Cl)cc2)c1", 18),
    ("N#Cc1cc(F)cc(S(=O)(=O)c2sc3ncc(N)cc3c2-c2ccc(Cl)cc2)c1", 30),
    ("O=S(=O)(c1ccc(Cl)cc1)c1sc2ncccc2c1-c1ccc(F)cc1", 92),
    ("N#Cc1cccc(S(=O)(=O)c2sc3nc(O)ccc3c2-c2ccc(Cl)cc2)c1", 46),
    ("O=S(=O)(c1ccc(Cl)cc1)c1sc2ncccc2c1-c1cccc(F)c1", 123),
]

Reported IC50 for Metabotropic glutamate receptor 5 (Rattus norvegicus, UniProt P31424), given O=S(=O)(c1ccc(Cl)cc1)c1sc2nc(O)ccc2c1-c1ccc(Cl)cc1 ?
338

Form entry - test system: Metabotropic glutamate receptor 5 (Rattus norvegicus, UniProt P31424); read-out: IC50; compound: N#Cc1cc(F)cc(S(=O)(=O)c2sc3ncc(N)cc3c2-c2cccc(Cl)c2)c1
38

# query: IC50 | item N#Cc1cc(F)cc(S(=O)(=O)c2sc3ncc(N)cc3c2-c2cccc(F)c2)c1 | system: Metabotropic glutamate receptor 5 (Rattus norvegicus, UniProt P31424)
5.5

Query the reported IC50 for Metabotropic glutamate receptor 5 (Rattus norvegicus, UniProt P31424); item: N#Cc1cc(F)cc(S(=O)(=O)c2sc3ncccc3c2-c2ccccc2F)c1
1.5

Record lookup: for Metabotropic glutamate receptor 5 (Rattus norvegicus, UniProt P31424), what IC50 belongs to N#Cc1cc(F)cc(S(=O)(=O)c2sc3ncccc3c2-c2cnccc2F)c1 ?
22

Hi! What's the reported IC50 for O=S(=O)(c1ccc(Cl)cc1)c1sc2nc(Cl)ccc2c1-c1ccc(Cl)cc1 on Metabotropic glutamate receptor 5 (Rattus norvegicus, UniProt P31424)?
1030

Lab note: need IC50 for N#Cc1cccc(-c2c(S(=O)(=O)c3cccc(C#N)c3)sc3ncccc23)c1 on Metabotropic glutamate receptor 5 (Rattus norvegicus, UniProt P31424), anyone have it?
105

Query for Metabotropic glutamate receptor 5 (Rattus norvegicus, UniProt P31424): what IC50 does the record show for N#Cc1cc(F)cc(S(=O)(=O)c2sc3ncc(N)cc3c2-c2ccc(F)c(F)c2)c1 ?
9

Checklist item: IC50 tested on Metabotropic glutamate receptor 5 (Rattus norvegicus, UniProt P31424), entry Cc1cccc(-c2c(S(=O)(=O)c3cccc(C#N)c3)sc3ncccc23)c1 , value?
44

Could you share what IC50 was measured for N#Cc1cc(F)cc(S(=O)(=O)c2sc3ncc(N)cc3c2-c2cc(F)cc(F)c2)c1 , tested on Metabotropic glutamate receptor 5 (Rattus norvegicus, UniProt P31424)?
6.1

Please provide the recorded IC50 for N#Cc1cc(F)cc(S(=O)(=O)c2sc3ncc(N)cc3c2-c2ccccc2F)c1 , tested on Metabotropic glutamate receptor 5 (Rattus norvegicus, UniProt P31424).
1.6

Request: IC50, test system Metabotropic glutamate receptor 5 (Rattus norvegicus, UniProt P31424), entry N#Cc1cc(F)cc(S(=O)(=O)c2sc3nc(F)ccc3c2-c2ccc(F)cc2)c1
14

Metabotropic glutamate receptor 5 (Rattus norvegicus, UniProt P31424) / IC50 / N#Cc1cc(F)cc(S(=O)(=O)c2sc3ncccc3c2-c2cnccc2Cl)c1 : value?
34

Lab request: please report IC50 under test system Metabotropic glutamate receptor 5 (Rattus norvegicus, UniProt P31424) for N#Cc1cc(F)cc(S(=O)(=O)c2sc3ncc(N)cc3c2-c2cnccc2F)c1
18

Test system Metabotropic glutamate receptor 5 (Rattus norvegicus, UniProt P31424); read-out IC50; what value for N#Cc1cc(F)cc(S(=O)(=O)c2sc3ncc(N)cc3c2-c2ccncc2F)c1 ?
44
